# relative fluorescent units (RFU), ELISA annotations
Target: T1, extracellular domain (ECD) of human IGSF11 (VSIG3), biotinylated (human, UniProt Q5DX21 23-241, biotinylated (site not stated))
T1 construct: also called human IGSF11 protein
T1 sequence: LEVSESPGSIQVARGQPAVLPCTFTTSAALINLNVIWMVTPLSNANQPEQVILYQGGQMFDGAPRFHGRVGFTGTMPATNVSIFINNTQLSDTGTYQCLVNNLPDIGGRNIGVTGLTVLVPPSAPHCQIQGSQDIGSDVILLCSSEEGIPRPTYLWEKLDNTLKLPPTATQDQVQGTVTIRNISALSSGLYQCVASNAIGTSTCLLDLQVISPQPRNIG
Assay: ELISA, scFv; RFU grade (*** >1.0, ** 0.5-1.0, * 0.1-0.5)

- BINDER: "A-003 (scFv format) (scFv, V domains shown, scFv) VH: VQLVQSGAEVKKPGSSVKVSCKASGGTFSSYAISWVRQAPGQGLEWMGGIIPIFGTANYAQKFQGRVTITADESTSTAYMELSSLRSEDTAVYYCASPRIQLWAAGGFDYWGQGTLVTVSS VL: QSALTQPASVSGSPGQSITISCTGTSSDVGGYNLVSWYQQHPGKAPKLMIYDVSNRPSGVSNRFSGSKSGNTASLTISGLQAEDEADYYCSSFTTSTTLVFGGGTKLTVL"
  EXPERIMENTAL VALUE: "0.1 to 0.5 rfu"

Ask: Sample A-025 (scFv format) (scFv, V domains shown, scFv) VH: QVQLVQSGAEVKKPGSSVKVSCKASGGTFSSYAISWVRQAPGQGLEWMGGIIPIFGTANYAQKFQGRVTITADESTSTAYMELTSLRSEDTAVYYCARGGWLRQNWFDPWGQGTLVTVSS VL: SSELTQDPAVSVALGQTVRITCQGDSLRSYYASWYQQKPGQAPVLVIYGKNNRPSGIPDRFSGSSSGNTASLTITGAQAEDEADYYCNSRDSSGNHPRVFGGGTKLTVL — what was its relative fluorescent units (RFU), ELISA?
Result: 0.1 to 0.5 rfu
